Listed here are compounds together with their documented Capping efficiency.
measured target: SP6 RNA polymerase (Enterobacteria phage SP6)
Construct: purchased New England BioLabs
Sequence (P06221 whole entry): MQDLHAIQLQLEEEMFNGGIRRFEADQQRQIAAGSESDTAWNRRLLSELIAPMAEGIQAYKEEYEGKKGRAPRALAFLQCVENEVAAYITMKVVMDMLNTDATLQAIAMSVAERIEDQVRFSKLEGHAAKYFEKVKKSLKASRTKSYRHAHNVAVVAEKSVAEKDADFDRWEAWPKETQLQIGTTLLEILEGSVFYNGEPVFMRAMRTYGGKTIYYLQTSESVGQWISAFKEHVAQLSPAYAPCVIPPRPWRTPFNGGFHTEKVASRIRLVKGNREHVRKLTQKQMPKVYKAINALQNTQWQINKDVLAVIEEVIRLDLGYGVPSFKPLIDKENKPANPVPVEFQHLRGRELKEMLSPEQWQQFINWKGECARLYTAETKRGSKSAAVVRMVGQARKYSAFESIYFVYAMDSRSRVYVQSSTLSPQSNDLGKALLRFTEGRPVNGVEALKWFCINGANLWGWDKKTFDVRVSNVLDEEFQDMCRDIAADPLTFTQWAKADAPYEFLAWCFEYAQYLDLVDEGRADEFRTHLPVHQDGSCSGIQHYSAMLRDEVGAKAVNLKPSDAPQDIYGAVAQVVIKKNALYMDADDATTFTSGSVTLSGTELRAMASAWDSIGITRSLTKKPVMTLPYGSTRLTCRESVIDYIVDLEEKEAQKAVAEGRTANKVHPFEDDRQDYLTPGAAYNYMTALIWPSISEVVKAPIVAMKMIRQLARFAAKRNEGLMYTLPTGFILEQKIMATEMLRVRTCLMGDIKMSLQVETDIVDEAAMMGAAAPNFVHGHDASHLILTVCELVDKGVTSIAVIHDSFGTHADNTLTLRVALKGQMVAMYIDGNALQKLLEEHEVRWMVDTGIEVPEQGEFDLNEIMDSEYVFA
method notes: Capping efficiency: incorporation of cap analogues at the 5′ end of short transcripts by in vitro transcription
Assay type: biochemical
cond: 1.25 mM cap analogue, 0.125 mM GTP

>  <compound>
COC1C(O)[C@@H](COP(=O)(O)OP(=O)(O)OP(=O)([O-])c2cn(CCOP(=O)(O)OC[C@H]3O[C@@H](n4cnc5c(=O)[nH]c(N)nc54)C(O)C3O)nn2)O[C@H]1n1c[n+](C)c2c(=O)[nH]c(N)nc21 (stereo partly shown) [m2^7,2′-OGppptC2H4OpG, m2^7,2′-OGppp-triazole-C2H4OpG]

>  <measured target>
SP6 RNA polymerase (Enterobacteria phage SP6)

>  <measurement unit>
%

>  <Capping efficiency>
47.6

$$$$
>  <compound>
C[n+]1cn([C@@H]2O[C@H](COP(=O)([O-])OP(=O)(O)Cc3cn(CCNP(=O)(O)OC[C@H]4O[C@@H](n5cnc6c(=O)[nH]c(N)nc65)C(O)C4O)nn3)C(O)C2O)c2nc(N)[nH]c(=O)c21 (stereo partly shown) [m^7GppCH2tC2H4NHpG, m^7GppCH2-triazole-C2H4NHpG]

>  <measured target>
SP6 RNA polymerase (Enterobacteria phage SP6)

>  <measurement unit>
%

>  <Capping efficiency>
54

$$$$
>  <compound>
C[n+]1cn([C@@H]2O[C@H](COP(=O)(O)NCCn3cc(P(=O)([O-])OP(=O)(O)OP(=O)(O)OC[C@H]4O[C@@H](n5cnc6c(=O)[nH]c(N)nc65)C(O)C4O)nn3)C(O)C2O)c2nc(N)[nH]c(=O)c21 (stereo partly shown) [m^7GpNHC2H4tpppG, m^7GpNHC2H4-triazole-pppG]

>  <measured target>
SP6 RNA polymerase (Enterobacteria phage SP6)

>  <measurement unit>
%

>  <Capping efficiency>
57

$$$$
>  <compound>
C[n+]1cn([C@@H]2O[C@H](COP(=O)([O-])OP(=O)(O)NCCn3cc(CCP(=O)(O)OP(=O)(O)OC[C@H]4O[C@@H](n5cnc6c(=O)[nH]c(N)nc65)[C@@H](O)C4O)nn3)C(O)[C@@H]2O)c2nc(N)[nH]c(=O)c21 (stereo partly shown) [m^7GppNHC2H4tC2H4ppG, m^7GppNHC2H4-triazole-C2H4ppG]

>  <measured target>
SP6 RNA polymerase (Enterobacteria phage SP6)

>  <measurement unit>
%

>  <Capping efficiency>
30

$$$$
>  <compound>
COC1C(O)[C@@H](COP(=O)(O)OP(=O)([O-])c2cn(CCOP(=O)(O)OP(=O)(O)OC[C@H]3O[C@@H](n4cnc5c(=O)[nH]c(N)nc54)C(O)C3O)nn2)O[C@H]1n1c[n+](C)c2c(=O)[nH]c(N)nc21 (stereo partly shown) [m2^7,2′-OGpptC2H4OppG, m2^7,2′-OGpp-triazole-C2H4OppG]

>  <measured target>
SP6 RNA polymerase (Enterobacteria phage SP6)

>  <measurement unit>
%

>  <Capping efficiency>
44.2

$$$$
>  <compound>
C[n+]1cn([C@@H]2O[C@H](COP(=O)(O)NCCn3cc(P(=O)([O-])OP(=O)(O)OC[C@H]4O[C@@H](n5cnc6c(=O)[nH]c(N)nc65)C(O)C4O)nn3)C(O)C2O)c2nc(N)[nH]c(=O)c21 (stereo partly shown) [m^7GpNHC2H4tppG, m^7GpNHC2H4-triazole-ppG]

>  <measured target>
SP6 RNA polymerase (Enterobacteria phage SP6)

>  <measurement unit>
%

>  <Capping efficiency>
57

$$$$
>  <compound>
C[n+]1cn([C@@H]2O[C@H](COP(=O)(O)NCCn3cc(CP(=O)(O)OP(=O)([O-])OC[C@H]4O[C@@H](n5cnc6c(=O)[nH]c(N)nc65)C(O)C4O)nn3)C(O)C2O)c2nc(N)[nH]c(=O)c21 (stereo partly shown) [m^7GpNHC2H4tCH2ppG, m^7GpNHC2H4-triazole-CH2ppG]

>  <measured target>
SP6 RNA polymerase (Enterobacteria phage SP6)

>  <measurement unit>
%

>  <Capping efficiency>
47

$$$$
